// provenance: PubChem BioAssay

Test: probe aLefty1 binding on compound microarray – biochemical, small-molecule microarray, 635/667 nm fluorescence, primary screen (AID 1153);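 note: score merges spot fluorescence with signal-to-noise ratio from the scanned slide images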
Conditions: higher = more signal
Note to self: values exactly at -0.007 are satisfied. So composite z-score at or above -0.007 is satisfied, below is not satisfied.

COC(=O)C(CC#Cc1ccc2c(c1)[C@]1(C(=O)N2)[C@H](c2ccccc2OCCO)N2[C@H](c3ccccc3)[C@H](c3ccccc3)OC(=O)[C@H]2[C@@H]1C(=O)Nc1nc2ccccc2s1)C(=O)OC ... satisfied
Cc1ccc(S[C@]2(C(=O)NCCN3CCOCC3)CC(=O)N(C3Cc4ccccc4C3)[C@@H]2c2ccc(CO)cc2)cc1 ... satisfied
CCCC=C(CCC)[C@@H](NS(=O)(=O)c1ccccc1)c1ccc(C(F)(F)F)cc1 ... satisfied
COc1ccc(C(=O)Nc2ccc3c(c2)[C@]2(O[C@@H](CCO)[C@H]([Si](C)(C)c4ccc(OC)cc4)[C@H]2C)C(=O)N3Cc2ccccc2)cc1 ... not satisfied

Then this compound:
Confirm if composite z-score reported for the compound CC(C)C(CO)N1C(=O)[C@@H]2[C@H]3C(=O)OCC=C[C@H]3OC23C=CCN(Cn2nnc4ccccc42)C(=O)[C@@H]13 (stereo partly specified) is -0.007 or above.
not satisfied
